Molecular target: glucagon receptor (GCGR) (Homo sapiens, UniProt P47871)
Construct: expressed in transfected cells; host or cells: CHO-K1 cells overexpressing GCGR (membrane fractions)
Sequence (P47871 26-477): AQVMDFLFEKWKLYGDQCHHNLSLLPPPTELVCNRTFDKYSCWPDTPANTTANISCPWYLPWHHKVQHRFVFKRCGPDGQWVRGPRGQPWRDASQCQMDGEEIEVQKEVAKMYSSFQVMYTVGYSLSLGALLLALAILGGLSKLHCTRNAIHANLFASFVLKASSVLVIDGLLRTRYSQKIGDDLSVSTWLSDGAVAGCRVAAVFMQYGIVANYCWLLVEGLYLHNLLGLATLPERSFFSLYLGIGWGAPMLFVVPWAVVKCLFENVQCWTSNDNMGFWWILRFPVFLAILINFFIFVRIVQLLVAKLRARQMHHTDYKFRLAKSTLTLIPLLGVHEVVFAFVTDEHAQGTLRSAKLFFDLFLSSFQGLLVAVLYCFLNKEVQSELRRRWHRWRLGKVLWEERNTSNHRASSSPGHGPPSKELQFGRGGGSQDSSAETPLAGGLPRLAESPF
Assay: I125-glucagon binding assay (competition, GCGR membrane fractions)
Details: competition with I125-glucagon 0.0625 nM, membrane fractions of GCGR overexpressed CHO-K1 cells
Could you please mark met for values of IC50 below 200 nM and not met for values at or above it?

{"Query smiles": "CC(C)[C@@H](Cc1noc(-c2ccc(C(C)(C)C)cc2)n1)Nc1ccc(C(=O)NCCC(=O)O)cc1", "Category label": "not met"}
{"Query smiles": "CC[C@H](C)[C@@H](COc1ccc(-c2ccc(Cl)cc2Cl)cc1)Nc1ccc(C(=O)NCc2nnn[nH]2)cc1", "Category label": "met"}
{"Query smiles": "COc1cc(OC[C@@H](Nc2ccc(C(=O)NCCC(=O)O)cc2)C(C)C)ccc1-c1ccc(Cl)cc1Cl", "Category label": "met"}
{"Query smiles": "CCCC[C@@H](COc1ccc(-c2ccc(Cl)cc2Cl)c(OC)c1)Nc1ccc(C(=O)NCCC(=O)O)cc1", "Category label": "met"}
{"Query smiles": "CC(C)[C@@H](COc1ccc(-c2cc3ccccc3o2)cc1)Nc1ccc(C(=O)NCCC(=O)O)cn1", "Category label": "met"}
{"Query smiles": "CC(C)C[C@@H](COc1cnc(-c2cc3ccccc3o2)nc1)Nc1ccc(C(=O)NCCC(=O)O)cc1", "Category label": "not met"}
{"Query smiles": "CCCC[C@@H](COc1ccc(-c2ccc(C(F)(F)F)cc2F)c(OC)c1)Nc1ccc(C(=O)NCCC(=O)O)cn1", "Category label": "met"}
{"Query smiles": "CC[C@H](C)[C@@H](COc1ccc(-c2ccc(Cl)cc2Cl)cc1)Nc1ccc(C(=O)NCCC(=O)O)cn1", "Category label": "not met"}
{"Query smiles": "CCCC[C@@H](COc1ccc(-c2cc3ccccc3o2)nc1)Nc1ccc(C(=O)NCCC(=O)O)cc1", "Category label": "met"}
{"Query smiles": "CCCC[C@@H](COc1ccc(-c2ccc(C(F)(F)F)cc2Cl)c(Cl)c1)Nc1ccc(C(=O)NCCC(=O)O)cc1", "Category label": "met"}
{"Query smiles": "CC(C)(C)[C@@H](COc1ccc(-c2cc3ccccc3o2)c(Cl)c1)Nc1ccc(C(=O)NCCC(=O)O)cc1", "Category label": "met"}
{"Query smiles": "CC(C)[C@H](COc1ccc(-c2nc3ccccc3s2)cc1)Nc1ccc(C(=O)NCCC(=O)O)cc1", "Category label": "met"}
{"Query smiles": "CCCC[C@@H](COc1ccc(-c2ccc(C(F)(F)F)cc2F)nc1)Nc1ccc(C(=O)NCCC(=O)O)cc1", "Category label": "met"}
{"Query smiles": "CC(C)[C@@H](COc1ccc(-c2cc3ccccc3o2)nc1)Nc1ccc(C(=O)NCCC(=O)O)cc1", "Category label": "not met"}
